System: T47D
Protocol Summary: NCI tumour cell line growth inhibition, 48 h
The source made the active and inactive calls. Cut-off read from the data, not from the text of the source: active = GI50 up to about 1.1 µM and inactive = higher.
The entries below come with measured GI50 values attached.

Molecule	GI50
NC(=O)C[S+]([O-])CC(N)C(=O)O (configuration not stated)	> 100 µM (inactive)
N=C(N)CCNC(=O)C1CCC(N)=N1 (configuration not stated)	6.5 µM (inactive)
Cc1ccccc1NC(=O)C(=O)CC(=O)c1sc(Nc2ccccc2[N+](=O)[O-])nc1C	27.2 µM (inactive)
Cc1csc2c1C(=O)c1ccsc1C2=O	2.2 µM (inactive)
CN1CCc2c(sc3ncn(Nc4ccc(Cl)cc4)c(=N)c23)C1	> 100 µM (inactive)
Nc1ccc2nc(-c3cccc(Cl)c3)cc(O)c2c1	5.96 µM (inactive)
c1cc(-c2cscc2-c2ccsc2)cs1	69.7 µM (inactive)
CCN(CC)C(=S)Oc1cc2oc(=O)cc(C)c2cc1Cl	54 µM (inactive)
COc1cccc(/C=N/[N+](C)(C)C)c1O	> 10 µM (inactive)
c1cc(CN2CCNCCNCCNCC2)cc(CN2CCNCCNCCNCC2)c1	> 100 µM (inactive)
CO/N=C\c1ccc2c(c1)Sc1ccccc1O2	24.5 µM (inactive)
Cc1nc2cccc(F)c2c(=O)n1C1CCCCNC1=O (configuration not stated)	> 10 µM (inactive)
